- Target Entity: T1, human CD81 on CD81-expressing cells (Jurkat E6.1, human PBMC, Ramos) (human, UniProt P60033 1-236)
- T1 sequence: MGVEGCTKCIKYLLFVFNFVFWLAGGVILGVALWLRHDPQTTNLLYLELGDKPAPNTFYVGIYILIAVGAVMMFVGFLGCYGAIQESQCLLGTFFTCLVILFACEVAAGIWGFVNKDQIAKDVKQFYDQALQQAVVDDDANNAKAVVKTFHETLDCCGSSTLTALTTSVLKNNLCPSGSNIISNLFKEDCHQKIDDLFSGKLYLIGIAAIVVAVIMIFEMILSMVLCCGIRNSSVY
- Experiment: cell-based or functional assay
Documented Jurkat chemotaxis (% of control IgG4) at 0.1 µg/mL across a set of binders
Readout: Jurkat chemotaxis (% of control IgG4) at 0.1 µg/mL (%)

Binder	Result
002-B05 (antibody, human IgG4 S228P, lambda, V domains shown, IgG4 S228P) VH: EVQLLESGGGLVQPGGSLRLSCAASGFTFSSNYMSWVRQAPGKGLEWVSYISSSSTYTDYADSVKGRFTISRDNSKNTLYLQMNSLRAEDTAVYYCARYSYSRDNFDYWGQGTLVTVSS VL: QSVLTQPPSASGTPGQRVTISCTGSTSNIGAGYGTHWYQRLPGTAPKLLIYGNSNRPSGVPDRFSGSKSGTSASLAISGLRSEDEADYYCQSYDTNLSVWVFGGGTKLTVLG	10
002-A07 N113G (antibody, human IgG4 S228P, lambda, V domains shown, IgG4 S228P; glycosylation site mutant of 002-A07 VL) VH: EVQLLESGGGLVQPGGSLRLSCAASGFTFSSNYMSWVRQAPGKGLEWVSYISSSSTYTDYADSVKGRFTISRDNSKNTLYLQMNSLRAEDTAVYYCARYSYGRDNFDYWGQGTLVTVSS VL: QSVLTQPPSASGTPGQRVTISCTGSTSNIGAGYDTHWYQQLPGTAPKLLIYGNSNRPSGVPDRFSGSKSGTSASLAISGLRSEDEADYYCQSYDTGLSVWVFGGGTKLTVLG	38
002-H02 (antibody, human IgG4 S228P, lambda, V domains shown, IgG4 S228P) VH: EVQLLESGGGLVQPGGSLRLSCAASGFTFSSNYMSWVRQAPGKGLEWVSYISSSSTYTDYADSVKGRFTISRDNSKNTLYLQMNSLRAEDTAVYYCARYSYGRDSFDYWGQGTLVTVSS VL: QSVLTQPSSASGTPGQRVTISCTGSTSNIGAGYGTHWYQQLPGTAPKLLIYGNSNRPSGVPDRFSGSKSGTSASLAISGLRSEDEADYYCQSYDTNLSVWVFGGGTKLTVLG	-1
002-A07 S115G (antibody, human IgG4 S228P, lambda, V domains shown, IgG4 S228P; glycosylation site mutant of 002-A07 VL) VH: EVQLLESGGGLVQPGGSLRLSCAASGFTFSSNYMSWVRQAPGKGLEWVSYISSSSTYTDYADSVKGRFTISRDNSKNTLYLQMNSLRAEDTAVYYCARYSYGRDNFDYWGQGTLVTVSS VL: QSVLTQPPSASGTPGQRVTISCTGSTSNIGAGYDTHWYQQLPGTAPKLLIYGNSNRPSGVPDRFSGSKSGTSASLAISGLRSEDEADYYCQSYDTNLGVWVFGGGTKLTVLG	13
002-A07 S115N (antibody, human IgG4 S228P, lambda, V domains shown, IgG4 S228P; glycosylation site mutant of 002-A07 VL) VH: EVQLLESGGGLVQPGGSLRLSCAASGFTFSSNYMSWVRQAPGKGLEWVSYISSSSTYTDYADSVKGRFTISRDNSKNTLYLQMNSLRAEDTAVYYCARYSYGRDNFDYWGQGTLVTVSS VL: QSVLTQPPSASGTPGQRVTISCTGSTSNIGAGYDTHWYQQLPGTAPKLLIYGNSNRPSGVPDRFSGSKSGTSASLAISGLRSEDEADYYCQSYDTNLNVWVFGGGTKLTVLG	-4
002-D08 (antibody, human IgG4 S228P, lambda, V domains shown, IgG4 S228P) VH: EVQLLESGGGLVQPGGSLRLSCATSGFPFSSNYMSWVRQAPGKGLEWVSYISSSSTYSDYADSVKGRFSISRDNSKNTLYLQMNSLRAEDTAVYYCARYSYGRDNFDYWGQGTLVTVSS VL: QSVLTQPSSASGTPGQRVTISCTGSTSNIGAGYATHWYQQLPGTAPKLLIYGNSNRPSGVPDRFSGSKSGTSASLAISGLRSEDEADYYCQSYDTNLSVWVFGGGTKLTVLG	67
002-A07 N113S (antibody, human IgG4 S228P, lambda, V domains shown, IgG4 S228P; glycosylation site mutant of 002-A07 VL) VH: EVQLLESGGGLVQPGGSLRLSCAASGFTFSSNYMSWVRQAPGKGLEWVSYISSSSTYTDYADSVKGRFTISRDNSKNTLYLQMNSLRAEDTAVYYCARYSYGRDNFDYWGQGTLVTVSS VL: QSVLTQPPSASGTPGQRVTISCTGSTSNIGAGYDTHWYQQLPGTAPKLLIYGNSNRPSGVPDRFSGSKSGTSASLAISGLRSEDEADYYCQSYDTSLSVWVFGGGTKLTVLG	40
002-A07 N113Q (antibody, human IgG4 S228P, lambda, V domains shown, IgG4 S228P; glycosylation site mutant of 002-A07 VL) VH: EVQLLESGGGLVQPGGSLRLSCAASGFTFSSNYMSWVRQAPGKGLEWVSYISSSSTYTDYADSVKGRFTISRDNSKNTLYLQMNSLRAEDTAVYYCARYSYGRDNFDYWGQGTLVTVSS VL: QSVLTQPPSASGTPGQRVTISCTGSTSNIGAGYDTHWYQQLPGTAPKLLIYGNSNRPSGVPDRFSGSKSGTSASLAISGLRSEDEADYYCQSYDTQLSVWVFGGGTKLTVLG	37
002-D03 (antibody, human IgG4 S228P, lambda, V domains shown, IgG4 S228P) VH: EVQLLESGGGLVQPGGSLRLSCAASGFTFRSNYMSWVRQAPGKGLEWVSYISSSSTYTDYADSVKGRFTISRDNSKNTLYLQMNSLRAEDTAVYYCARYSYGRDNFDYWGQGTLVTVSS VL: QSVLTQPPSASGTPGQRVTISCTGSTSNIGAGYDTHWYQQLPGTAPKLLIYGNSNRPSGVPDRFSGSKSGTSASLAISGLRSEDEADYYCQSYDTNLSVWVFGGGTKLTVLG	25
002-C02 (antibody, human IgG4 S228P, lambda, V domains shown, IgG4 S228P) VH: EVQLLESGGGLVQPGGSLRLSCAASGFTFSSNYMSWVRQAPGKGLEWVSYISSSSSYTDYADTVKGRFTISRDNSKNTLYLQMNSLRAEDTAVYYCASYSYGRDSFDYWGQGTLVTVSS VL: QSVLTQPPSASGTPGQRVTISCTGSTSNIGAGYDTHWYQQLPGTAPKLLIYGNSNRPSGVPDRFSGSKSGTSASLAISGLRTEDEADYYCQSYDTNLSVWVFGGGTKLTVLG	31

Values were extracted from patent US20150139990A1.
